biological target: S-methyl-5'-thioadenosine phosphorylase (Homo sapiens); test: Binding affinity to recombinant human N-terminal TEV cleavage site-fused-His6-tagged MTAP expressed in Escherichia coli BL21-CodonPlus(DE3)-RIPL competent cells assessed as reduction in MTA hydrolysis measured after 40 mins in presence of xanthine oxidase
Sequence (Q13126 whole entry, the tested form may be a part): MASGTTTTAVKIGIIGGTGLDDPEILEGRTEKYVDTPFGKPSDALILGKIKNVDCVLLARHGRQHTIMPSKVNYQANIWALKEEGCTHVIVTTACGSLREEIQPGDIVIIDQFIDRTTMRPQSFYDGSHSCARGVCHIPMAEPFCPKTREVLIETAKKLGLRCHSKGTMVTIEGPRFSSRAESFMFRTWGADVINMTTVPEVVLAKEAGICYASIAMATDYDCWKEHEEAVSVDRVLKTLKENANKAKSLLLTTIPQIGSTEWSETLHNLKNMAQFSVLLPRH
Under this convention, Condition met denotes Kd strictly below 1 nM and Condition not met denotes Kd at or above 1 nM.

Cn1cc(CCCSC[C@H]2CN(Cc3c[nH]c4c(N)ncnc34)C[C@@H]2O)nn1 Condition not met
C#CCSC[C@H]1CN(Cc2c[nH]c3c(N)ncnc23)C[C@@H]1O Condition met
CCCCn1cc(CCCSC[C@H]2CN(Cc3c[nH]c4c(N)ncnc34)C[C@@H]2O)nn1 Condition not met
C=CCn1cc(CCCSC[C@H]2CN(Cc3c[nH]c4c(N)ncnc34)C[C@@H]2O)nn1 Condition not met

[ask] Does the reported Kd of the following molecule sit strictly below 1 nM? C=CCn1cc(CSC[C@H]2CN(Cc3c[nH]c4c(N)ncnc34)C[C@@H]2O)nn1
[reply] Condition not met
